Test system: Mus musculus
Assay: Antitumor activity in BALB/c nude mouse xenografted with human Bel7402 cells assessed as tumor volume at 60 mg/kg, ip administered once in a week for two weeks starting from 6 days post tumor transplantation measured every 3 days for 21 days (reference value: […])
Settings: in vivo, 504 h
quantity.measured: tumor volume (mm³)
Reply with just the number (in mm³).

Request: I'd like to know its tumor volume. The molecule in question is CCc1c2c(nc3ccccc13)-c1cc3c(c(=O)n1C2)COC(=O)[C@@]3(CC)OC(=O)Cn1cc(F)c(=O)[nH]c1=O
Response: 127

----------
System: Mus musculus
Assay: Toxicity in BALB/c nude mouse xenografted with human BGC823 cells assessed as tumor volume at 30 mg/kg, ip administered once in a week for two weeks starting from 6 days post tumor transplantation and measured every 3 days during compound dosing for 15 days (reference value: […])
Conditions: in vivo, 360 h
quantity.measured: tumor volume (mm³)
Reply with just the number (in mm³).

Request: I'd like to know its tumor volume. The compound in question is CCc1c2c(nc3ccccc13)-c1cc3c(c(=O)n1C2)COC(=O)[C@@]3(CC)OC(=O)Cn1cc(F)c(=O)[nH]c1=O
Response: 334

----------
Parameter: IC50. Scope: all listed entries.
Test system: HCT-8
Assay: Antiproliferative activity against human HCT8 cells after 96 hrs by MTT assay
Assay type: functional, cell-based
Settings: HCT-8, 96 h
Reply with just the number (in nM).

// known answers, use as guide
INSERT INTO results (smiles_code, obs_value) VALUES
  ('CCc1c2c(nc3ccccc13)-c1cc3c(c(=O)n1C2)COC(=O)[C@@]3(CC)OC(=O)Cn1cc(F)c(=O)[nH]c1=O', 7),
  ('CC[C@@]1(OC(=O)Cn2ccc(=O)[nH]c2=O)C(=O)OCc2c1cc1n(c2=O)Cc2cc3ccccc3nc2-1', 14),
  ('CC[C@@]1(OC(=O)Cn2cc(F)c(=O)[nH]c2=O)C(=O)OCc2c1cc1n(c2=O)Cc2cc3c([N+](=O)[O-])cccc3nc2-1', 13);

Now let's try a different one.
Request: I'd like to know its IC50. The molecule in question is CC[C@@]1(OC(=O)Cn2cc(Br)c(=O)[nH]c2=O)C(=O)OCc2c1cc1n(c2=O)Cc2cc3ccccc3nc2-1
Response: 6

----------
Tested on: BGC-823
Experiment: Antiproliferative activity against human BGC823 cells after 96 hrs by MTT assay
Format: functional, cell-based
Conditions: BGC-823, 96 h
Parameter: IC50. Scope: all listed entries.
Reply with just the number (in nM).

// known answers, use as guide
INSERT INTO results (smiles_code, obs_value) VALUES
  ('CCc1c2c(nc3ccccc13)-c1cc3c(c(=O)n1C2)COC(=O)[C@@]3(CC)OC(=O)Cn1cc(Br)c(=O)[nH]c1=O', 31),
  ('CC[C@@]1(OC(=O)Cn2cc(I)c(=O)[nH]c2=O)C(=O)OCc2c1cc1n(c2=O)Cc2cc3c([N+](=O)[O-])cccc3nc2-1', 16);

Now let's try a different one.
Request: I'd like to know its IC50. The compound in question is CC[C@@]1(OC(=O)Cn2cc(Br)c(=O)[nH]c2=O)C(=O)OCc2c1cc1n(c2=O)Cc2cc3c([N+](=O)[O-])cccc3nc2-1
Response: 15
